Cited source: the supplement of paper PMC12645437

Biological target: T1, CRBN, Q96SW2;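 also: pooled lentiviral library of zinc finger degron-EGFP fusions in mCherry-positive Jurkat cells, FACS-sorted after compound exposure, with degron abundance counted by next-generation sequencing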
T1 chain: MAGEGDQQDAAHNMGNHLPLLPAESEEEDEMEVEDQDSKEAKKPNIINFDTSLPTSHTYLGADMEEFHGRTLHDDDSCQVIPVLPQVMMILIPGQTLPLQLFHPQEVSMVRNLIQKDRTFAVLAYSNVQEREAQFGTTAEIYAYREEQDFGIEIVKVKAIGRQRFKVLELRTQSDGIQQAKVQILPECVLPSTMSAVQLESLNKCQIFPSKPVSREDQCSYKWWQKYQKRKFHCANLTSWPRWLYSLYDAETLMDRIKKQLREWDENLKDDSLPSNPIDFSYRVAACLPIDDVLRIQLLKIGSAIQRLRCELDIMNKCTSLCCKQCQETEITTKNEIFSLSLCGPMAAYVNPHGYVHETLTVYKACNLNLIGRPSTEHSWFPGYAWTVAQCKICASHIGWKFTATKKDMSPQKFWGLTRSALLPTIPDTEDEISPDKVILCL
Test: log2 fold change of degron read counts, EGFP-low vs EGFP+ sorted cells (limma voom), compound-induced degradation; higher = more compound-induced degradation of the degron-EGFP fusion; degrons are variants of IKZF1/3 zinc finger 2; compound dose not given here
Conditions: Jurkat; 18 h; compound: compound 33 (diphenyl IMiD analogue)
In all, about 8,300 sequences were measured (“log2 fold change of degron read counts, EGFP-low vs EGFP+ sorted cells (limma voom), compound-induced degradation”: median about -1.1, highest 2% from about 3.2 on). The sample holds the highest values, similar sequences and a random draw of the others, so the mix is not that of the screen.
Assign fulfilled to entries whose log2 fold change of degron read counts meets or exceeds 0.9; assign not fulfilled to the rest.

{"POLYMER_SEQUENCE": "FDCDQCGAYFTQKGNLLRHIKL [46F_47D_49D_50Q_52G_53A_54Y_55F_67L_, Q9UKT9]", "ASSIGNED_LABEL": "not fulfilled"}
{"POLYMER_SEQUENCE": "FLCPICGREFTQKGNLLRHIKL [46F_47L_49P_50I_52G_53R_54E_55F_67L_, Q9UKT9]", "ASSIGNED_LABEL": "not fulfilled"}
{"POLYMER_SEQUENCE": "FQCNICGASFTQKGNLLRHIKL [46F_47Q_49N_50I_52G_53A_54S_55F_67L_, Q9UKT9]", "ASSIGNED_LABEL": "fulfilled"}
{"POLYMER_SEQUENCE": "FWCNICGASFTQKGNLLRHIKL [46F_47W_49N_50I_52G_53A_54S_55F_67L_, Q9UKT9]", "ASSIGNED_LABEL": "fulfilled"}
{"POLYMER_SEQUENCE": "FKCEICGHCFTQKGNLLRHIKL [46F_47K_49E_50I_52G_53H_54C_55F_67L_, Q9UKT9]", "ASSIGNED_LABEL": "not fulfilled"}
{"POLYMER_SEQUENCE": "FQCNQCGHEFTQKGNLLRHIKL [46F_47Q_49N_50Q_52G_53H_54E_55F_67L_, Q9UKT9]", "ASSIGNED_LABEL": "not fulfilled"}
{"POLYMER_SEQUENCE": "FNCNICGASFTQKGNLLRHIKL [46F_47N_49N_50I_52G_53A_54S_55F_67L_, Q9UKT9]", "ASSIGNED_LABEL": "not fulfilled"}
{"POLYMER_SEQUENCE": "FNCPICGRDFTQKGNLLRHIKL [46F_47N_49P_50I_52G_53R_54D_55F_67L_, Q9UKT9]", "ASSIGNED_LABEL": "not fulfilled"}
{"POLYMER_SEQUENCE": "LWCEICGFKCTQKGNLLRHIKL [46L_47W_49E_50I_52G_53F_54K_55C_67L_, Q9UKT9]", "ASSIGNED_LABEL": "fulfilled"}
{"POLYMER_SEQUENCE": "FGCPICGRGFTQKGNLLRHIKL [46F_47G_49P_50I_52G_53R_54G_55F_67L_, Q9UKT9]", "ASSIGNED_LABEL": "not fulfilled"}
{"POLYMER_SEQUENCE": "FVCEICGAWFTQKGNLLRHIKL [46F_47V_49E_50I_52G_53A_54W_55F_67L_, Q9UKT9]", "ASSIGNED_LABEL": "not fulfilled"}
{"POLYMER_SEQUENCE": "FNCDVCGAPFTQKGNLLRHIKL [46F_47N_49D_50V_52G_53A_54P_55F_67L_, Q9UKT9]", "ASSIGNED_LABEL": "not fulfilled"}
{"POLYMER_SEQUENCE": "LNCPICGFSCTQKGNLLRHIKL [46L_47N_49P_50I_52G_53F_54S_55C_67L_, Q9UKT9]", "ASSIGNED_LABEL": "fulfilled"}
{"POLYMER_SEQUENCE": "FNCDVCGAFFTQKGNLLRHIKL [46F_47N_49D_50V_52G_53A_54F_55F_67L_, Q9UKT9]", "ASSIGNED_LABEL": "not fulfilled"}
{"POLYMER_SEQUENCE": "FFCDQCGAAFTQKGNLLRHIKL [46F_47F_49D_50Q_52G_53A_54A_55F_67L_, Q9UKT9]", "ASSIGNED_LABEL": "not fulfilled"}
{"POLYMER_SEQUENCE": "FHCEICGRPFTQKGNLLRHIKL [46F_47H_49E_50I_52G_53R_54P_55F_67L_, Q9UKT9]", "ASSIGNED_LABEL": "not fulfilled"}
{"POLYMER_SEQUENCE": "FICEICGHPFTQKGNLLRHIKL [46F_47I_49E_50I_52G_53H_54P_55F_67L_, Q9UKT9]", "ASSIGNED_LABEL": "not fulfilled"}
{"POLYMER_SEQUENCE": "FYCPVCGAPFTQKGNLLRHIKL [46F_47Y_49P_50V_52G_53A_54P_55F_67L_, Q9UKT9]", "ASSIGNED_LABEL": "fulfilled"}
{"POLYMER_SEQUENCE": "FSCPICGHEFTQKGNLLRHIKL [46F_47S_49P_50I_52G_53H_54E_55F_67L_, Q9UKT9]", "ASSIGNED_LABEL": "not fulfilled"}
{"POLYMER_SEQUENCE": "FMCNICGASFTQKGNLLRHIKL [46F_47M_49N_50I_52G_53A_54S_55F_67L_, Q9UKT9]", "ASSIGNED_LABEL": "fulfilled"}
{"POLYMER_SEQUENCE": "FTCPVCGAPFTQKGNLLRHIKL [46F_47T_49P_50V_52G_53A_54P_55F_67L_, Q9UKT9]", "ASSIGNED_LABEL": "fulfilled"}
{"POLYMER_SEQUENCE": "FRCEICGRIFTQKGNLLRHIKL [46F_47R_49E_50I_52G_53R_54I_55F_67L_, Q9UKT9]", "ASSIGNED_LABEL": "not fulfilled"}
{"POLYMER_SEQUENCE": "FGCPICGHWFTQKGNLLRHIKL [46F_47G_49P_50I_52G_53H_54W_55F_67L_, Q9UKT9]", "ASSIGNED_LABEL": "not fulfilled"}
{"POLYMER_SEQUENCE": "FWCPVCGAPFTQKGNLLRHIKL [46F_47W_49P_50V_52G_53A_54P_55F_67L_, Q9UKT9]", "ASSIGNED_LABEL": "fulfilled"}
{"POLYMER_SEQUENCE": "FVCPVCGAPFTQKGNLLRHIKL [46F_47V_49P_50V_52G_53A_54P_55F_67L_, Q9UKT9]", "ASSIGNED_LABEL": "fulfilled"}
{"POLYMER_SEQUENCE": "FNCNVCGAPFTQKGNLLRHIKL [46F_47N_49N_50V_52G_53A_54P_55F_67L_, Q9UKT9]", "ASSIGNED_LABEL": "not fulfilled"}
{"POLYMER_SEQUENCE": "FCCEQCGANFTQKGNLLRHIKL [46F_47C_49E_50Q_52G_53A_54N_55F_67L_, Q9UKT9]", "ASSIGNED_LABEL": "not fulfilled"}
{"POLYMER_SEQUENCE": "FICNQCGRSFTQKGNLLRHIKL [46F_47I_49N_50Q_52G_53R_54S_55F_67L_, Q9UKT9]", "ASSIGNED_LABEL": "not fulfilled"}
